Study System: Orexin receptor type 2 (Homo sapiens, UniProt O43614)
Sequence (O43614 whole entry): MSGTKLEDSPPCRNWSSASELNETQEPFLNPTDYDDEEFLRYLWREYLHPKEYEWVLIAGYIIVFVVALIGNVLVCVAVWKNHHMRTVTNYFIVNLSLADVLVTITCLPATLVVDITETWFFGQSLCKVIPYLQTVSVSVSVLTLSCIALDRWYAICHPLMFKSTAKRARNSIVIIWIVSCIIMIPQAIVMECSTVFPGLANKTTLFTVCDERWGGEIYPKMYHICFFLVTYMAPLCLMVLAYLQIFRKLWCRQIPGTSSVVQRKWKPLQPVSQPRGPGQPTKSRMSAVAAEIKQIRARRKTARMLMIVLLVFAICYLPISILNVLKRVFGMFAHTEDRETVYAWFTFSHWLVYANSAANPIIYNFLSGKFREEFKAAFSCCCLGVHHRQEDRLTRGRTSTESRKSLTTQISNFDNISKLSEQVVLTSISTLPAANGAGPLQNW
Assay Details: Agonist activity at human OX2 receptor overexpressed in CHO-RD-HGA16 cells assessed as calcium mobilization after 15 mins by fluorescence assay
Where a SMILES comes first, the peptide text is derived from it.
Measure: EC50 (µM)
Answers are plain numbers, in µM.

INSERT INTO measurements (compound, measure, measure_unit, reading) VALUES
  ('CC[C@H](C)[C@H](NC(=O)CNC(=O)[C@H](C)NC(=O)[C@H](C)NC(=O)[C@H](Cc1cnc[nH]1)NC(=O)[C@H](CC(N)=O)NC(=O)CNC(=O)[C@H](C)NC(=O)CNC(=O)[C@H](Cc1cnc[nH]1)NC(=O)[C@@H](CC(C)C)NC(=O)[C@H](CC(C)C)NC(=O)[C@H](CCC(=O)O)NC(=O)[C@@H](N)Cc1ccc(O)cc1)C(=O)N[C@@H](CC(C)C)C(=O)N[C@H](C(=O)N[C@@H](CC(C)C)C(N)=O)[C@@H](C)O', 'EC50', 'µM', 0.156),
  ('CC[C@H](C)[C@H](NC(=O)CNC(=O)[C@H](C)NC(=O)[C@H](C)NC(=O)[C@H](Cc1cnc[nH]1)NC(=O)[C@H](CC(N)=O)NC(=O)CNC(=O)[C@H](CO)NC(=O)[C@H](C)NC(=O)[C@H](CCC(N)=O)NC(=O)[C@H](CC(C)C)NC(=O)[C@H](CC(C)C)NC(=O)[C@H](CCCNC(=N)N)NC(=O)[C@@H](N)CCC(N)=O)C(=O)N[C@@H](CC(C)C)C(=O)N[C@H](C(=O)N[C@@H](CCSC)C(N)=O)[C@@H](C)O (H-QRLLQASGNHAAGILTM-NH2)', 'EC50', 'µM', 1.04),
  ('CC[C@H](C)[C@H](NC(=O)CNC(=O)[C@H](C)NC(=O)[C@@H](C)NC(=O)[C@H](Cc1cnc[nH]1)NC(=O)[C@H](CC(N)=O)NC(=O)CNC(=O)[C@H](C)NC(=O)CNC(=O)[C@H](Cc1cnc[nH]1)NC(=O)[C@H](CC(C)C)NC(=O)[C@H](CC(C)C)NC(=O)[C@H](CCC(=O)O)NC(=O)[C@@H](N)Cc1ccc(O)cc1)C(=O)N[C@@H](CC(C)C)C(=O)N[C@H](C(=O)N[C@@H](CC(C)C)C(N)=O)[C@@H](C)O', 'EC50', 'µM', 1.25);

Hey, can you go through the list below and give me EC50 for every item?
1. CC[C@H](C)[C@H](NC(=O)CNC(=O)[C@H](C)NC(=O)[C@H](C)NC(=O)[C@H](Cc1cnc[nH]1)NC(=O)[C@H](CC(N)=O)NC(=O)CNC(=O)[C@H](C)NC(=O)CNC(=O)[C@H](Cc1cnc[nH]1)NC(=O)[C@H](CC(C)C)NC(=O)[C@H](CC(C)C)NC(=O)[C@H](CCC(=O)O)NC(=O)[C@H](N)Cc1ccc(O)cc1)C(=O)N[C@@H](CC(C)C)C(=O)N[C@H](C(=O)N[C@@H](CC(C)C)C(N)=O)[C@@H](C)O
2. CC[C@H](C)[C@H](NC(=O)CNC(=O)[C@H](C)NC(=O)[C@H](C)NC(=O)[C@H](Cc1cnc[nH]1)NC(=O)[C@H](CC(N)=O)NC(=O)CNC(=O)[C@@H](C)NC(=O)CNC(=O)[C@H](Cc1cnc[nH]1)NC(=O)[C@H](CC(C)C)NC(=O)[C@H](CC(C)C)NC(=O)[C@H](CCC(=O)O)NC(=O)[C@@H](N)Cc1ccc(O)cc1)C(=O)N[C@@H](CC(C)C)C(=O)N[C@H](C(=O)N[C@@H](CC(C)C)C(N)=O)[C@@H](C)O
3. CC[C@H](C)[C@H](NC(=O)CNC(=O)[C@H](C)NC(=O)[C@H](C)NC(=O)[C@@H](Cc1cnc[nH]1)NC(=O)[C@H](CC(N)=O)NC(=O)CNC(=O)[C@H](C)NC(=O)CNC(=O)[C@H](Cc1cnc[nH]1)NC(=O)[C@H](CC(C)C)NC(=O)[C@H](CC(C)C)NC(=O)[C@H](CCC(=O)O)NC(=O)[C@@H](N)Cc1ccc(O)cc1)C(=O)N[C@@H](CC(C)C)C(=O)N[C@H](C(=O)N[C@@H](CC(C)C)C(N)=O)[C@@H](C)O
4. CC[C@H](C)[C@H](NC(=O)CNC(=O)[C@H](C)NC(=O)[C@H](C)NC(=O)[C@H](Cc1cnc[nH]1)NC(=O)[C@H](CC(N)=O)NC(=O)[C@H](C)NC(=O)[C@H](C)NC(=O)CNC(=O)[C@H](Cc1cnc[nH]1)NC(=O)[C@H](CC(C)C)NC(=O)[C@H](CC(C)C)NC(=O)[C@H](CCC(=O)O)NC(=O)[C@@H](N)Cc1ccc(O)cc1)C(=O)N[C@@H](CC(C)C)C(=O)N[C@H](C(=O)N[C@@H](CC(C)C)C(N)=O)[C@@H](C)O (H-YELLHGAANHAAGILTL-NH2)
5. CC[C@H](C)[C@H](NC(=O)CNC(=O)[C@H](C)NC(=O)[C@H](C)NC(=O)[C@H](Cc1cnc[nH]1)NC(=O)[C@H](CC(N)=O)NC(=O)CNC(=O)[C@H](C)NC(=O)CNC(=O)[C@H](Cc1cnc[nH]1)NC(=O)[C@H](C)NC(=O)[C@H](CC(C)C)NC(=O)[C@H](CCC(=O)O)NC(=O)[C@@H](N)Cc1ccc(O)cc1)C(=O)N[C@@H](CC(C)C)C(=O)N[C@H](C(=O)N[C@@H](CC(C)C)C(N)=O)[C@@H](C)O (H-YELAHGAGNHAAGILTL-NH2)
6. CC[C@H](C)[C@H](NC(=O)CNC(=O)[C@H](C)NC(=O)[C@H](C)NC(=O)[C@H](Cc1cnc[nH]1)NC(=O)[C@H](CC(N)=O)NC(=O)CNC(=O)[C@H](C)NC(=O)CNC(=O)[C@H](Cc1cnc[nH]1)NC(=O)[C@@H]1CCCN1C(=O)[C@H](CC(C)C)NC(=O)[C@H](CCC(=O)O)NC(=O)[C@@H](N)Cc1ccc(O)cc1)C(=O)N[C@@H](CC(C)C)C(=O)N[C@H](C(=O)N[C@@H](CC(C)C)C(N)=O)[C@@H](C)O (H-YELPHGAGNHAAGILTL-NH2)

**Result**
3.22
1.92
1.76
1.36
7.85
1.61
